Origin of values: the Human Domainome abundance scans (Beltran et al. 2025)

Each entry below carries its reported abundance fitness.
B1: Pituitary-specific positive transcription factor 1, residues 130 to 198; numbered along this chain, P28069 (parent)
chain: RELEKFANEFKVRRIKLGYTQTNVGEALAAVHGSEFSQTTICRFENLQLSFKNACKLKAILSKWLEEAE

Variants of: B1
experiment-description: abundance fitness (aPCA) (normalised: wild type 0, dead -1); higher = more abundant; growth selection in yeast, the domain comes from the species named
test-settings: Homo sapiens

See these solved cases before continuing.
RELEKFANEFKVRRIKLGYTQTNVGEALAAVHGSEFSQTTICRFENLQLSFKQACKLKAILSKWLEEAE : 0
RELEKFANEFKVRRIKLGYTQTNVGEALAAVHGSEFSQTTICRFERLQLSFKNACKLKAILSKWLEEAE : -0.313
RELEKFANEFKVRRIKLGYTQTNVGEALAAVHGSEFSQTTIMRFENLQLSFKNACKLKAILSKWLEEAE : 0.311
RELEKFANEFKVRRIKLGETQTNVGEALAAVHGSEFSQTTICRFENLQLSFKNACKLKAILSKWLEEAE : -0.934
RELEKFANEFKVRRIKLGYTQTNVGEALAAVHGSEFSQTTICRLENLQLSFKNACKLKAILSKWLEEAE : -0.76
RELEKFANEFKVRRIKLGYTQTNVGEALAAVHGSEFSQTTICRFENLQWSFKNACKLKAILSKWLEEAE : -1.15

I am curious: what abundance fitness value has been reported for RELEKFANEFKVRRIKLGYTQTNVGEALAAVHGSEFRQTTICRFENLQLSFKNACKLKAILSKWLEEAE ?
-0.743

I am curious: what abundance fitness value has been reported for RELEKFANEFKVVRIKLGYTQTNVGEALAAVHGSEFSQTTICRFENLQLSFKNACKLKAILSKWLEEAE ?
-0.734
